- system_under_test: PLK1 (Homo sapiens, UniProt P53350)
- Construct: endogenous in cells; host or cells: HeLa LgBit (Plk1-HiBit KI): HeLa cells stably expressing LgBit, with HiBit knocked into the endogenous Plk1 locus by CRISPR/Cas9
- Sequence (P53350 whole entry): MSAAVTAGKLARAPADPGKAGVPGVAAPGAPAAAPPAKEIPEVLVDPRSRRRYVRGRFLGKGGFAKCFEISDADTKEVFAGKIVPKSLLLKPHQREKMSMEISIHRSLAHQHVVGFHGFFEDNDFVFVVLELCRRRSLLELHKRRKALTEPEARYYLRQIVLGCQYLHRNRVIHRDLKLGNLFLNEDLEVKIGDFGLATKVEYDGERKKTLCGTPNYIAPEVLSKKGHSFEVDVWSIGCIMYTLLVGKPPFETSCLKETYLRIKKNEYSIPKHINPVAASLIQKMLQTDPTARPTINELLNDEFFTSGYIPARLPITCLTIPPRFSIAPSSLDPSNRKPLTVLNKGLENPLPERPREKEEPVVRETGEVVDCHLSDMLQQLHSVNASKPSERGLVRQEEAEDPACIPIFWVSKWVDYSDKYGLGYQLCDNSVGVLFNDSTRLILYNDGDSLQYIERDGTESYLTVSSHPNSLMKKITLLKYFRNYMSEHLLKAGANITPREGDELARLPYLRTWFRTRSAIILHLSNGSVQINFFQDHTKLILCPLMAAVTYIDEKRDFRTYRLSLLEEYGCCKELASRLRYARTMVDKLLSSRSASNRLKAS
- test_description: Luciferase assay for PLK1 in HeLa LgBit (Plk1-HiBit KI) cell line
- Assay type: cell-based
- condition_label: 300 nM compound, luminescence after 9 hours, read-out: Activity: ratio of the luminescense value of compound treatment group to DMSO treatment group

[
  {
    "compound": "COc1cc(C(=O)NC2CCN(C3CN(c4ccc(C5CCC(=O)NC5=O)cc4F)C3)CC2)ccc1Nc1ncc2c(n1)N(C1CCCC1)CC(F)(F)C(=O)N2C (centres unmarked)",
    "remaining activity at 0.3 µM": "< 30%"
  },
  {
    "compound": "COc1cc(C(=O)NC2CCC(N(C)CC3CCN(c4ccc(C5CCC(=O)NC5=O)cc4F)CC3)CC2)ccc1Nc1ncc2c(n1)N(C1CCCC1)CC(F)(F)C(=O)N2C (centres unmarked)",
    "remaining activity at 0.3 µM": "< 30%"
  },
  {
    "compound": "COc1cc(C(=O)NN2CCC(C3CN(c4ccc(C5CCC(=O)NC5=O)cc4F)C3)CC2)ccc1Nc1ncc2c(n1)N(C1CCCC1)CC(F)(F)C(=O)N2C (centres unmarked)",
    "remaining activity at 0.3 µM": "< 60%"
  },
  {
    "compound": "COc1cc(OCC2CC3(CCN(CC4CCN(c5ccc(C6CCC(=O)NC6=O)cc5F)CC4)CC3)C2)ccc1Nc1ncc2c(n1)N(C1CCCC1)CC(F)(F)C(=O)N2C (centres unmarked)",
    "remaining activity at 0.3 µM": "< 30%"
  },
  {
    "compound": "COc1cc(C(=O)NN2CCC(CCN3CCN(c4ccc(C5CCC(=O)NC5=O)cc4F)CC3)CC2)ccc1Nc1ncc2c(n1)N(C1CCCC1)CC(F)(F)C(=O)N2C (centres unmarked)",
    "remaining activity at 0.3 µM": "< 30%"
  }
]
